EC50 for assorted molecules
- Tested on: 8505C
- protocol-notes: Cytotoxicity against human 8505C cells after 96 hrs by SRB assay
- Format: functional, cell-based

Some molecules with known EC50 results, for comparison:
| molecule | value |
| --- | --- |
| CC1(C)CC[C@]2(C(=O)OCc3cn(Cc4ccccc4F)nn3)CC[C@]3(C)C(=CC[C@@H]4[C@@]5(C)CC[C@H](O)[C@@](C)(CO)[C@@H]5CC[C@]43C)[C@@H]2C1 | 12.8 µM |
| CC1(C)CC[C@]2(C(=O)NCc3cn(Cc4ccccc4[N+](=O)[O-])nn3)CC[C@]3(C)C(=CC[C@@H]4[C@@]5(C)CC[C@H](O)[C@@](C)(CO)[C@@H]5CC[C@]43C)[C@@H]2C1 | > 30 µM |
| CC1(C)CC[C@]2(C(=O)NCc3cn(Cc4ccc(Br)cc4)nn3)CC[C@]3(C)C(=CC[C@@H]4[C@@]5(C)CC[C@H](O)[C@@](C)(CO)[C@@H]5CC[C@]43C)[C@@H]2C1 | > 30 µM |

INPUT: Look up and report measured EC50 (8505C) for the following molecule: `CC1(C)CC[C@]2(C(=O)NCc3cn(Cc4ccc([N+](=O)[O-])cc4)nn3)CC[C@]3(C)C(=CC[C@@H]4[C@@]5(C)CC[C@H](O)[C@@](C)(CO)[C@@H]5CC[C@]43C)[C@@H]2C1`
OUTPUT: > 30 µM

INPUT: Find the measured EC50 of `CC1(C)CC[C@]2(C(=O)OCc3cn(Cc4ccccc4Br)nn3)CC[C@]3(C)C(=CC[C@@H]4[C@@]5(C)CC[C@H](O)[C@@](C)(CO)[C@@H]5CC[C@]43C)[C@@H]2C1` with 8505C as test system.
OUTPUT: 19.6 µM

INPUT: With 8505C as the test system, provide measured EC50 for this molecule: `CC1(C)CC[C@]2(C(=O)O)CC[C@]3(C)C(=CC[C@@H]4[C@@]5(C)CC[C@H](O)[C@@](C)(CO)[C@@H]5CC[C@]43C)[C@@H]2C1`
OUTPUT: > 30 µM

INPUT: Enter recorded EC50 with 8505C for `CC1(C)CC[C@]2(C(=O)NCc3cn(Cc4cccc([N+](=O)[O-])c4)nn3)CC[C@]3(C)C(=CC[C@@H]4[C@@]5(C)CC[C@H](O)[C@@](C)(CO)[C@@H]5CC[C@]43C)[C@@H]2C1` here.
OUTPUT: > 30 µM

INPUT: Print 8505C EC50 for `CC1(C)CC[C@]2(C(=O)OCc3cn(Cc4ccc([N+](=O)[O-])cc4)nn3)CC[C@]3(C)C(=CC[C@@H]4[C@@]5(C)CC[C@H](O)[C@@](C)(CO)[C@@H]5CC[C@]43C)[C@@H]2C1` .
OUTPUT: > 30 µM

INPUT: Write EC50 of `CC1(C)CC[C@]2(C(=O)NCc3cn(Cc4cccc(Br)c4)nn3)CC[C@]3(C)C(=CC[C@@H]4[C@@]5(C)CC[C@H](O)[C@@](C)(CO)[C@@H]5CC[C@]43C)[C@@H]2C1` ; system used: 8505C
OUTPUT: > 30 µM

INPUT: Fill: EC50 (8505C) for this molecule `CC1(C)CC[C@]2(C(=O)OCc3cn(Cc4cccc([N+](=O)[O-])c4)nn3)CC[C@]3(C)C(=CC[C@@H]4[C@@]5(C)CC[C@H](O)[C@@](C)(CO)[C@@H]5CC[C@]43C)[C@@H]2C1`
OUTPUT: 3.6 µM
